Values compiled from the supplement of paper PMC10065799.

Target: c-Src SH2
Test: SH2 binding enrichment of the phosphorylated peptide, bacterial display (enrichment ratio); higher = better substrate or ligand; peptides without Tyr show the background
Kindly note that classification relies on SH2 binding enrichment with these boundaries: group 1: < 0.5; group 2: ≥ 0.5 and < 0.7; group 3: ≥ 0.7

Use these answered entries as a reference point.
>>> classification("VLNDAYENLTR [SYNE2_Y3255]")
"group 3"
>>> classification("YYSSEYHYVGG [CTSC_Y345]")
"group 3"
>>> classification("FGLTLYPNSRE [MEP1A_Y472_V469L]")
"group 2"
>>> classification("TEDELYQLFLQ [RASGRP2_Y378_S381F]")
"group 1"

Input: Which class does FCIDHYLGKEM [G6PD_Y202_R198C_YF] fall in?
Output: group 3

Input: Which class is correct for the following sequence? VDESLYKTHPQ [HK1_Y417_G414E]
Output: group 1

Input: Band of LIHLHYIRRDF [BBS4_Y43_K46R_YF] ?
Output: group 3

Input: Where would QTEAPYRFIYM [PTPN11_Y511_Q510P] land among the classes by reported SH2 binding enrichment?
Output: group 1

Input: For TGEDWYVLVRV [SF3B3_Y904_G908R] , which SH2 binding enrichment bin applies?
Output: group 1

Input: Which bin, given its SH2 binding enrichment, does KHCEDYVFSFN [DSC1_Y846_C848F_YF] occupy?
Output: group 2

Input: Sort VSNFNYFYHRE [KCNA1_Y413] into one of the categories.
Output: group 3

###

Tested on: AncSZ
Experiment: phosphorylation enrichment, bacterial display (enrichment ratio); higher = better substrate or ligand; peptides without Tyr show the background
The entries below come with measured phosphorylation enrichment values attached.
Respond using a number only.

# annotated cases, reported phosphorylation enrichment shown
>>> reportedresult("DLAAQYTTVGR [SGSH_Y240]")
0.701
>>> reportedresult("PIPIKYKAMKK [MYD88_Y257_L252P]")
0.677
>>> reportedresult("VGSIEYLKREW [KCNMA1_Y885]")
0.823
>>> reportedresult("KQLGEYKFQNA [ALB_Y425_E420K]")
0.507
>>> reportedresult("TRSFDYMEGGD [FGF7_Y58_YF]")
1.03

Lab note: measured phosphorylation enrichment of KEKLCYVAPDF [ACTA1_Y220_L223P] was 1.4

phosphorylation enrichment reported for this sequence AESPEYVHMYT [FAM111A_Y511] : 1.34

Just so you know, measured phosphorylation enrichment for KGIQLYDTPFE [SHB_Y297_YF] came out at 1.13

Sample MHDKEYFSVHN [MET_Y1234_Y1230H_YF] ; phosphorylation enrichment observed: 0.954

phosphorylation enrichment reported for this sequence RRIHSNRGHLW [VHL_Y112_Y112N] : 0.702

For RASSVFTRSTG [CCR5_Y339_Y339F] the sequence record lists phosphorylation enrichment as 0.73

Looking up EAIMTYVSSFY [ACTN4_Y260_K255E] , I found its phosphorylation enrichment recorded as 1.14

Noted for HLVSEYQQYQD [TUBB3_Y422_D417H] : its phosphorylation enrichment reads 1.78

sequence FEPWVYSFSYE [PRKDC_Y647] , phosphorylation enrichment observed: 1.43

###

System: c-Abl (mouse)
Test: phosphorylation enrichment, bacterial display (enrichment ratio); higher = better substrate or ligand; peptides without Tyr show the background
Binning scheme for phosphorylation enrichment: label 0 = under 0.6, label 1 = from 0.6 up to 0.8, label 2 = 0.8 and over

Input: Exercise: read the entry KRYRIYHLATS [BRCA2_Y3009] and state which class it falls under.
Output: label 0

Input: Note: place this sequence into its band. Item: VNTMLYEKFTY [TEK_Y1108_T1106M]
Output: label 2

Input: Category of WASQRYGRELR [BAD_Y110_A107S] , please.
Output: label 1

###

Target: Fyn (UniProt P06241)
Sequence (P06241 whole entry, looked up): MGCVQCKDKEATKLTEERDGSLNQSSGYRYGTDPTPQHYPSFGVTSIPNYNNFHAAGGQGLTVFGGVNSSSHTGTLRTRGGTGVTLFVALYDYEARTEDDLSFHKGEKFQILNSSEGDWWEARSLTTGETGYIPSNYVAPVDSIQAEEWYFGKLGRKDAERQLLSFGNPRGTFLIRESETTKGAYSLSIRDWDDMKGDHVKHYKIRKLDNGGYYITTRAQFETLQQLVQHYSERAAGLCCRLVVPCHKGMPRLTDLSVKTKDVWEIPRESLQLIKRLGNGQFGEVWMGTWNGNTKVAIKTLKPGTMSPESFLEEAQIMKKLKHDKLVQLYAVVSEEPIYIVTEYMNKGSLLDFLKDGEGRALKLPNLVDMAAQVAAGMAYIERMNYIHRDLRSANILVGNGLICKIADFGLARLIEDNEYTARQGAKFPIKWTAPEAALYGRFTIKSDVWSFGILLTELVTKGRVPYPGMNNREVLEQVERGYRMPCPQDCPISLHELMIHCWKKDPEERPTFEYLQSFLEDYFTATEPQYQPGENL
Test: phosphorylation enrichment, bacterial display (enrichment ratio); higher = better substrate or ligand; peptides without Tyr show the background
measurementKind: phosphorylation enrichment
// response body must contain only the number

Take a look at these entries with their results.
>>> reportedresult("QNTGGYYDLYG [PTPN11_Y62_D61G]")
8.15
>>> reportedresult("IDDNQYAYLKA [HNF4A_Y286_E285Q]")
0.668
>>> reportedresult("PLQNTYNFNVL [SLC4A1_Y553_K551N_YF]")
1.67
>>> reportedresult("FYDANYDGKEY [MAPRE2_Y162]")
0.642

phosphorylation enrichment measured on DALDNYVIRGV [PCCA_Y473] = 0.457

YTFNSYYMHWV [IGHV1-46_Y51_T49N] yielded phosphorylation enrichment of 1.54

# phosphorylation enrichment (sequence: KELSNYKHLTL [SLIT2_Y776] ) is 0.417

The sequence listed as SGRSGYCLGTR [SCO1_Y60_P58S] has a reported phosphorylation enrichment of 0.341

Record AGQKDYDRLRP [RAC3_Y64_E62K] , field phosphorylation enrichment: 0.52

Form field phosphorylation enrichment, entry LRSELYFLIAR [PHIP_Y16] : 0.769

The sequence listed as PADCRYYTFPQ [GAMT_Y222_A224T] shows phosphorylation enrichment equal to 2.82

The reported value for SFTDPYAQPPL [KMT2D_Y2378_YF] in terms of phosphorylation enrichment is 0.531

get_value(item= AACQHYGVHTC [NR4A2_Y275_R278H] , readout=phosphorylation enrichment) returns 0.433

For reference, reported phosphorylation enrichment for KAESWYQTKFE [KRT75_Y342_E337K_YF] stands at 0.518

###

Biological target: SHP2-C SH2
Experiment: SH2 binding enrichment of the phosphorylated peptide, bacterial display (enrichment ratio); higher = better substrate or ligand; peptides without Tyr show the background
Let's look at some sequences and their measured SH2 binding enrichment.
Just the number, please, no unit after it.

Observe how each entry below is paired with its result.
>>> reportedresult("LQRCKYSHMEP [TEX45_Y434]")
1.1
>>> reportedresult("DLAAQYTTVGR [SGSH_Y240]")
1.24
>>> reportedresult("VLALWYFFLTN [ZDHHC23_Y127_H132N_YF]")
1.03
>>> reportedresult("NFDRVYIFHLR [MYOF_Y1137_YF]")
1.66
>>> reportedresult("HNLPIYEGYAL [ACTA1_Y168_V165L]")
0.714
>>> reportedresult("HFMKLYEEKTG [PARP1_Y618]")
0.962

Lookup result for LLQKTYNYNVL [SLC4A1_Y553_P548L] ; measured SH2 binding enrichment: 0.866

###

Test system: c-Abl (mouse)
Assay: phosphorylation enrichment, bacterial display (enrichment ratio); higher = better substrate or ligand; peptides without Tyr show the background
Classification field: Yes = phosphorylation enrichment at or over 0.6; No = phosphorylation enrichment under 0.6.

Past entries and their recorded results:
>>> classification("NFATLHLKIYH [PDE6B_Y219_Y219H]")
"Yes"
>>> classification("QMQAAYQKVVA [HBD_Y131]")
"No"
>>> classification("DPYHVYIKNHV [KCNE3_Y95_R99H]")
"Yes"
>>> classification("NGSKAYAFVHF [PABPC5_Y147_G146A_YF]")
"Yes"
>>> classification("VECRVYAEDPY [PCCA_Y401]")
"Yes"

Input: Is phosphorylation enrichment at least 0.6? Consider NLRQQYNSPQE [UMPS_Y432_G429R]
Output: No

Input: Can NVTGHYISPFH [PPA2_Y59] be said to have phosphorylation enrichment at or above 0.6?
Output: Yes

###

Molecular target: SHP2-C SH2
Experiment: SH2 binding enrichment of the phosphorylated peptide, bacterial display (enrichment ratio); higher = better substrate or ligand; peptides without Tyr show the background
measurementKind: SH2 binding enrichment

Some solved entries appear below for comparison.
>>> reportedresult("LANNEYYFRVC")
0.562
>>> reportedresult("FISVGYVDDTQ [HLA-B_Y51]")
0.747

SH2 binding enrichment for VLALWYFFLTH [ZDHHC23_Y127_YF] is 1.16

According to the records, this sequence YQASYYRRGDR [LTK_Y677_R673Q] displays SH2 binding enrichment of 0.442

SH2 binding enrichment reading for AQADIYKANFQ [IKBKG_Y308_D311N] : 0.729

// field: SH2 binding enrichment; key: PEADKYRLPFA [FGG_Y300_T303P_YF] ; value = 0.517

The reported SH2 binding enrichment of the sequence KPFRVYCDMNT [FGB_Y269_YF] was 0.535

###

Target: EPHB2 (UniProt P29323)
Sequence (P29323 whole entry, looked up): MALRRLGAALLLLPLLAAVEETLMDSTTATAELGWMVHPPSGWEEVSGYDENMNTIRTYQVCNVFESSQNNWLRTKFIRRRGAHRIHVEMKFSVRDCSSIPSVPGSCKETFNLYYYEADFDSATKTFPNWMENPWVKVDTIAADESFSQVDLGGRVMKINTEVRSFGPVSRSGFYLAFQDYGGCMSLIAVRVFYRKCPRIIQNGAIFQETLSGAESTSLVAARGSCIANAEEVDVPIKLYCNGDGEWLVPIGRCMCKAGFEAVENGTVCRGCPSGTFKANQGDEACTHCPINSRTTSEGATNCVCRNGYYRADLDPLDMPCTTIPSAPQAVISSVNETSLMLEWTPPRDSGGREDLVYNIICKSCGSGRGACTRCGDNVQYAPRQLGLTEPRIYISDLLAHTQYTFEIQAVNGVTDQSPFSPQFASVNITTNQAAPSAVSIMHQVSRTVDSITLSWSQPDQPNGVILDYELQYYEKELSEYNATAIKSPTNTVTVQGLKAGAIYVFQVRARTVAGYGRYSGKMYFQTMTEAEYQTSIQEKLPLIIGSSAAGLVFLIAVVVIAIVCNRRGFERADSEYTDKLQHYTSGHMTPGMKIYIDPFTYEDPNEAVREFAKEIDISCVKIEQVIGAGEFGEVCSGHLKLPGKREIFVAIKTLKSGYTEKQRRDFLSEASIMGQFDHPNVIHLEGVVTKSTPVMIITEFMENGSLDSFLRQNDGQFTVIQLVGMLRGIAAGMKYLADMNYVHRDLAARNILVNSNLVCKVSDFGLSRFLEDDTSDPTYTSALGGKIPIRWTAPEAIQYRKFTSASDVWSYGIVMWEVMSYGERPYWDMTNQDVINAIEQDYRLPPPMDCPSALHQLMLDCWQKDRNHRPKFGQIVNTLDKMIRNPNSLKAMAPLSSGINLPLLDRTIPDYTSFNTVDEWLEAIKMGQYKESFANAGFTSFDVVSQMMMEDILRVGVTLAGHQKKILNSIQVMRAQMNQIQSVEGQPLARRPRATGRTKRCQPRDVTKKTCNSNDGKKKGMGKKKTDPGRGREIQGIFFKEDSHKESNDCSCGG
Assay: phosphorylation enrichment, bacterial display (enrichment ratio); higher = better substrate or ligand; peptides without Tyr show the background
Our labelling divides records by phosphorylation enrichment into ranges: band 1 = under 0.5, band 2 = from 0.5 up to 0.6, band 3 = 0.6 and over

Example results:
>>> classification("GESKDYALHAG [SVIL_Y185_V189A]")
"band 2"
>>> classification("ELANYYKLHHI [AK7_Y391]")
"band 3"
>>> classification("NLRQQYNSPQE [UMPS_Y432_G429R]")
"band 1"
>>> classification("IVRSLYKDLED [VHL_Y185_E186K]")
"band 2"
>>> classification("RRIHSNRGHLW [VHL_Y112_Y112N]")
"band 1"

Input: Kindly state the category for this sequence: NFYEYYVDDPL [GCHFR_Y48_P53L]
Output: band 3

Input: # classify by phosphorylation enrichment band: IGRHAYGDQYR [IDH1_Y135]
Output: band 1

Input: Any idea which band EAIMTYVSSFY [ACTN4_Y260_K255E] is in?
Output: band 3

Input: Lab log: VNYGAYINDFK [GLB1_Y488] — assign phosphorylation enrichment category
Output: band 3

Input: Band of QMQAAYQKVVA [HBD_Y131] ?
Output: band 1

Input: Input LADKPYTFEYY [FXN_Y118_D122Y] ; output its category
Output: band 3

Input: Exam item: assign LNAGAYSKVVQ [PPT1_Y172] to the correct category.
Output: band 2

Input: Could you place FRVAGYETQGG [TIA1_Y383_YF] in its proper category? Many thanks.
Output: band 1
